Values compiled from patent US20260217708A1.

Molecular target: system Xc^− (Homo sapiens)
Sequence (Q9UPY5 whole entry): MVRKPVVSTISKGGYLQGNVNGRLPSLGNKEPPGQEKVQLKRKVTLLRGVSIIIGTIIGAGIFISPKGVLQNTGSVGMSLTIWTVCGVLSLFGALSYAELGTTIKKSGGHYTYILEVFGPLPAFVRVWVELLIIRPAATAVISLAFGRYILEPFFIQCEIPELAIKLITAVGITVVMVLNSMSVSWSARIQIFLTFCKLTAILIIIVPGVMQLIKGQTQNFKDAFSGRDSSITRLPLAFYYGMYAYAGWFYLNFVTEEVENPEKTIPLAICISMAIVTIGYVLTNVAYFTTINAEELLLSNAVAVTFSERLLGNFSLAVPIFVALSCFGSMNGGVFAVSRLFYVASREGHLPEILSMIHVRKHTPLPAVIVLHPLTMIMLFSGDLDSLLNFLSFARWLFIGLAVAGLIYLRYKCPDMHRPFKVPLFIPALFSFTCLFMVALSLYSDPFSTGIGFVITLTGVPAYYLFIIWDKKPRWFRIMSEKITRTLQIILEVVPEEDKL
Sequence (P08195 102-630 partner): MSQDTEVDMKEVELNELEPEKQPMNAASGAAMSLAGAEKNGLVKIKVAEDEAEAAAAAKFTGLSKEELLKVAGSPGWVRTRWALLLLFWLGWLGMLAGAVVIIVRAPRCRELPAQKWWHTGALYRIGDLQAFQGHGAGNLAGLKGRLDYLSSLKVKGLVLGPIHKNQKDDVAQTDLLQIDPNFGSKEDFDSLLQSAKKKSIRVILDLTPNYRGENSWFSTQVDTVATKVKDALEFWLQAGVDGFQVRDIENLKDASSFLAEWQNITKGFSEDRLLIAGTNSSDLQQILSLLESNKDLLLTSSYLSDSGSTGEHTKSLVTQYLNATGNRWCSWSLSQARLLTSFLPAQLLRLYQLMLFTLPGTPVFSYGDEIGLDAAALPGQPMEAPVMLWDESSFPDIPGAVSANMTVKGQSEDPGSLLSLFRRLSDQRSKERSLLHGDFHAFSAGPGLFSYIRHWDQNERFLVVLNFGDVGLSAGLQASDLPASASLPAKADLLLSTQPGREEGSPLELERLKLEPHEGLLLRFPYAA
Test: [^14C]L-Cystine uptake assay
Format: cell-based
Design: endogenous in cells; host or cells: H4 cells
Details: H4 cells, sodium-free HEPES buffer, 0.5 μM L-[14C]Cystine and 4.5 μM L-Cystine, 1 hour at 37° C.; read-out: pIC50 [^14C] L-Cystine uptake assay (converted)
Protocol: The effect of compounds of Formula (I) on the system Xc^− functionality was examined in two independent cell assays: (i) measurement of cystine-induced glutamate release; and (ii) measurement of [^14C]L-Cystine uptake. […] In this assay, the medium is devoid of sodium to prevent the transport of glutamate by sodium-dependent excitatory amino acid transporters (EAATs). […] After 1 hour at 37° C., plates were counted in a MicroBeta^2 microplate counter (PerkinElmer).
quantityKind: IC50

Cc1cc2c(c(F)n1)-c1cccnc1[C@@H](F)C(=O)N2CC(=O)Nc1ccc(C(F)(F)F)cc1 (single isomer, unassigned) [#195] ... < 15.8 nM
Cc1cc2c(c(Cl)n1)-c1cccnc1C(C)C(=O)N2CC(=O)Nc1ccc(C(F)F)cc1 (single isomer, unassigned) [#116] ... < 15.8 nM

Please examine the following record next.
Task item: Could you share which IC50 value was measured for COc1cc(F)c2c(c1)N(CC(=O)Nc1ccc(C(F)F)cc1)C(=O)C(C)c1ncccc1-2 (single isomer, unassigned) [#315] ?
Reply: < 15.8 nM
